- assay.comment: Ex vivo biodistribution of 177Lu-labeled ligands in PC-3 tumor-bearing mice
- cond: mouse, PC-3 tumor, intravenous, after 72 h pi; read-out: tumor uptake
quantity.kind: tissue uptake at 72 h

Tell me the measured tissue uptake at 72 h of CC(C)C[C@H](NC(=O)[C@H](Cc1cnc[nH]1)N(C)C(=O)CNC(=O)[C@@H](NC(=O)[C@H](C)NC(=O)[C@H](Cc1c[nH]c2ccccc12)NC(=O)[C@H](CCC(N)=O)NC(=O)[C@@H](Cc1ccccc1)NC(=O)CN1CCC(NC(=O)CN2CCN(CC(=O)O)CCN(CC(=O)O)CCN(CC(=O)O)CC2)CC1)C(C)(C)C)C(=O)N1CC(F)(F)C[C@H]1C(N)=O [[^177Lu]Lu-LW02060, metal not drawn] , please.
< 3 %ID/g

Can you handle CC(C)C[C@@H](CN1CC(F)(F)C[C@H]1C(N)=O)NC(=O)[C@H](Cc1c[nH]cn1)NC(=O)CN(C)C(=O)[C@@H](NC(=O)[C@H](C)NC(=O)[C@H](Cc1c[nH]c2ccccc12)NC(=O)[C@H](CCC(N)=O)NC(=O)[C@@H](Cc1ccccc1)NC(=O)CN1CCC(NC(=O)CN2CCN(CC(=O)O)CCN(CC(=O)O)CCN(CC(=O)O)CC2)CC1)C(C)C [[^177Lu]Lu-LW02080, metal not drawn] next?
< 1 %ID/g
